Attribution: patent US20060079453A1

biological target: HLA-DR DRB5*0101 (DR51) (Homo sapiens, UniProt P01903+Q30154); assay: biochemical; assay type: binding; conditions: DRB5 *0101
No end group written: not given here.
READOUT: pIC50
One number for each entry, as −log10 of the molar value.

Known results for sequences:
RVIKNSIRLTL
5.05
LHKLQTYPRTNTGSG
7.40
HLKRYYGRILHYLKA
8.64
LHLLSNDMCARAYSE
4.54
LQQLFLSTLSFVCPW
4.43
LKELIKVGLPSFENL
4.38
LFFYRKSVWSKLQSI
7.74
LSGLHGQDLFGIWSK
4.09
LQLHVDKAVSGLRSL
7.12
LKLVYRDDFPYAVCR
5.04

Could you tell me pIC50 for each of these sequences? They are listed below.
1. TTLLRALGAQKEAIS
2. GRLEYTLKDRRNFDI

1. 7.68
2. 6.10
